experiment: folding stability dG unfold from trypsin proteolysis; higher = more stable
Please note: fulfilled applies when folding stability dG unfold is 0.9 kcal/mol or greater, and not fulfilled applies otherwise.

1) SAGMSEEERKAAEEASKPPVKVETLTVTVLVEVDGKLYLVRATITRVVLPDGSIVTELKIEIIPLEDLSAGG [r19_11_TrROS_Hall]; fulfilled

Item SAGMIEILELPPNKAIVKIYDPKTGKFEIIEIDFGGKDGKPLSLEELIEKIKKLAKELYPDLEINVTPLSAG [r5_293_TrMRF] with folding stability dG unfold of 0.9 kcal/mol or above? fulfilled

Does SAGMLSSETVPFPDSEITIEYDPETGTVKITTTTTTSSPSLDYRTGKPGSVSSSTTTSFEVEAEPGAELSAG [r5_195_JUSTAS] have a reported folding stability dG unfold of at least 0.9 kcal/mol? not fulfilled

Tell me whether folding stability dG unfold is at least 0.9 kcal/mol here: SAGGSAITIEVTMNPNGYMGIRLRDPGNGEEIQIPFPMEPGQNPEDVRNWAREIVDELKKDGWRIYSAGGSA [r15_1022_TrROS] fulfilled

// inclusive: folding stability dG unfold at least 0.9 kcal/mol? input: SAGGSAGGSAGSSSISRETFDPETGLRYVYDPETDTITVIDLSNNKVVKTTPVGPEELERSAGGSAGGSAGG [r17_271_JUSTAS] not fulfilled

Dear colleague, could you confirm whether SAGGKKKTAEELAEELKKKLEELGFKVVKIEKLPDGTVLITFEDGYVIKFDVKTGKITIMPKEELEKLSAGG [r13_717_TrROS_Hall] has folding stability dG unfold at or above 0.9 kcal/mol? fulfilled

Dear colleague, could you confirm whether SAGAGKTPDGKEYIIPFTFKNENGETTPEEIEEKIKEFTAKHPEVKIKEIKAIKEGDSVKVLVVVEKPASAG [r5_688_TrMRF] has folding stability dG unfold at or above 0.9 kcal/mol? fulfilled
